Where these numbers come from: the supplement of paper PMC13380429

# Tested on: A549-ACE2
# assay_procedure: drug-induced phospholipidosis relative to tamoxifen; higher = more phospholipidosis
# condition: 0.3 µM; 48 h
Counter-ions that a name gives are not always drawn.
readout_type: drug-induced phospholipidosis (%)

[[record]]
compound = "O=C(O)CCCCCCCC(=O)O"
numeric_value = 0.97

[[record]]
compound = "O=C(Nc1ncc(SCCN2CCCC2)s1)[C@]1(c2ccc(S(=O)(=O)C3CC3)cc2)C[C@H]1C1CCCCC1"
numeric_value = 10.1

[[record]]
compound = "C=C1C(=O)O[C@@H]2C[C@@]3(C)CCC[C@H](C)C3=C[C@H]12"
numeric_value = 0.11

[[record]]
compound = "CNCc1ccc(-c2cc(-c3nc(-c4ccc(S(=O)(=O)C(C)C)cc4)cnc3N)on2)cc1"
numeric_value = 14.2

[[record]]
compound = "Cc1ccc(S(=O)(=O)/C=C/C#N)cc1"
numeric_value = 2.31

[[record]]
compound = "CNc1cc(OC)c(C(=O)NC2CCN(Cc3ccccc3)C2C)cc1Cl (stereo not drawn) [nemonapride]"
numeric_value = 3.09

[[record]]
compound = "CC/C(=C(\\c1ccc(O)cc1)c1ccc(OCCNC)cc1)c1ccccc1 [Endoxifen HCl]"
numeric_value = 5.61

[[record]]
compound = "C[C@@H]1COCCN1c1cc(=O)n2c(n1)N(Cc1cncc(Cl)c1)[C@H](C(F)(F)F)CC2"
numeric_value = 1.08


---

# Tested on: Calu-3
# assay_procedure: cell viability relative to DMSO; higher = less toxic
# condition: 72 h; 1000 nM
readout_type: cell viability (%)

[[record]]
chemical_structure = "O=C(O)CNC(=O)c1ccccc1I"
numeric_value = 104

[[record]]
chemical_structure = "O=C(O)c1ccc(Nc2ncc3c(n2)-c2ccc(Cl)cc2C(c2c(F)cccc2F)=NC3)cc1"
numeric_value = 91.3

[[record]]
chemical_structure = "Cc1nc(-c2cccnc2)sc1C(=O)Nc1ccccc1-c1cn2c(CN3CCOCC3)csc2n1"
numeric_value = 104


---

# Test system: HepG2
# assay_procedure: drug sensitivity score (DSS) for viability; higher = more toxic; extreme values may be limits of the assay
# condition: 72 h
Where drug sensitivity score equals or exceeds 2, the correct label is 1; where it does not, the label is -1.

[[record]]
compound = "O=C(C(c1ccccc1)c1ccccc1)N1CCN(CC(O)COc2cccc3ncccc23)CC1 (centres undefined) [dofequidar]"
assigned_label = -1

[[record]]
compound = "O=C(O)C[CH2][Ge](=[O])[O][Ge](=[O])[CH2]CC(=O)O [propagermanium]"
assigned_label = -1

[[record]]
compound = "CCCCCNCC(N)=O [milacemide]"
assigned_label = -1

[[record]]
compound = "CCOc1ccc(Cc2cc([C@]34OC[C@](CO)(O3)[C@@H](O)[C@H](O)[C@H]4O)ccc2Cl)cc1 [ertugliflozin]"
assigned_label = -1

[[record]]
compound = "O=C(O)c1ccc(Nc2ncc3c(n2)-c2ccc(Cl)cc2C(c2c(F)cccc2F)=NC3)cc1 [MLN8054]"
assigned_label = 1

[[record]]
compound = "CC(C)C(=O)c1ccc(O)c(O)c1 [U-0521]"
assigned_label = -1

[[record]]
compound = "C[C@@H](NCCCc1cccc(C(F)(F)F)c1)c1cccc2ccccc12 [cinacalcet]"
assigned_label = 1

[[record]]
compound = "CNC(=O)c1cc(COc2nnc(Nc3ccc(Cl)cc3)c3ccoc23)ccn1 [telatinib]"
assigned_label = -1

[[record]]
compound = "O=C(O)CNC(=O)c1ccccc1I [2-iodohippuric-acid]"
assigned_label = -1

[[record]]
compound = "CN(CCc1ccc(Cl)c(Cl)c1)CCN1CCCC1 [BD-1008]"
assigned_label = -1

[[record]]
compound = "Cc1cc(C(=O)Nc2cccc(C(=O)Nc3cccc(C(F)(F)F)c3)c2)on1"
assigned_label = -1

[[record]]
compound = "CC(C)n1cnc2c(C(=O)N[C@H]3CN4CCC3CC4)cc(Cl)cc21"
assigned_label = -1

[[record]]
compound = "Nc1nc2ccc(Cl)cc2c2nc(-c3ccco3)nn12"
assigned_label = 1

[[record]]
compound = "CC(C)C[C@@H](C(=O)N[C@H](C(=O)OC1CCCC1)c1ccccc1)[C@H](O)C(=O)NO [tosedostat]"
assigned_label = 1

[[record]]
compound = "CC(C)c1ccccc1Cc1cc(C(=O)Nc2ccc(S(=O)(=O)c3ccccc3C(C)(C)C)cc2)c(O)c(O)c1O [TW-37]"
assigned_label = 1

[[record]]
compound = "CCCCCS(=O)(=O)CCCCCCCCCCn1c(-c2ccc(O)cc2)c(C)c2cc(O)ccc21"
assigned_label = 1

[[record]]
compound = "C[C@@](Cc1ccc(O)c(O)c1)(NN)C(=O)O [carbidopa]"
assigned_label = -1

[[record]]
compound = "N#Cc1cc(NC(=O)C(=O)O)c(Cl)c(NC(=O)C(=O)O)c1 [lodoxamide]"
assigned_label = -1

[[record]]
compound = "O=C1OC(CN2CCOCC2)CN1/N=C/c1ccc([N+](=O)[O-])o1 (centres undefined) [furaltadone]"
assigned_label = 1


---

# Test system: Caco-2
# assay_procedure: cell viability relative to DMSO; higher = less toxic
# condition: 72 h; 10000 nM
readout_type: cell viability (%)

[[record]]
compound = "CCC(=O)O[C@]1(C(=O)COC(C)=O)CC[C@H]2[C@@H]3C[C@H](C)C4=CC(=O)C=C[C@]4(C)[C@H]3[C@@H](O)C[C@@]21C [methylprednisolone-aceponate]"
readout_type = "cell viability"
numeric_value = 105

[[record]]
compound = "O=C(NC(NC(=S)Nc1ccc(F)c([N+](=O)[O-])c1)C(Cl)(Cl)Cl)C(c1ccccc1)c1ccccc1 (stereo not drawn)"
readout_type = "cell viability"
numeric_value = 10.7

[[record]]
compound = "CN1CCc2cc3c(cc2[C@H]1[C@@H]1OC(=O)c2c1ccc1c2OCO1)OCO3 [bicuculline-(+)]"
readout_type = "cell viability"
numeric_value = 100


---

# Test system: Caco-2
# assay_procedure: cell viability relative to DMSO; higher = less toxic
# condition: 72 h; 10000 nM
readout_type: cell viability

[[record]]
compound = "CCOC(=O)C1=C(C)NC(C)=C(C(=O)OC)C1c1cccc(Cl)c1Cl (stereo not drawn) [felodipine]"
readout_type = "cell viability"
result = "99%"

[[record]]
compound = "CCc1nc2ccc(Cl)cn2c1C(=O)NCc1ccc(N2CCC(c3ccc(OC(F)(F)F)cc3)CC2)cc1 [Q-203]"
readout_type = "cell viability"
result = "85.3%"

[[record]]
compound = "CCc1cc(Cl)c(OC)c(C(=O)NC[C@@H]2CCCN2CC)c1O [eticlopride]"
readout_type = "cell viability"
result = "87%"

[[record]]
compound = "CN1C(=O)CC(c2ccccc2)C1=O (stereo not drawn) [phensuximide]"
readout_type = "cell viability"
result = "103%"

[[record]]
compound = "CCC(=O)N1CCN(c2ccc(-n3c(=O)ccc4cnc5ccc(-c6cnc7ccccc7c6)cc5c43)cc2C(F)(F)F)CC1 [torin-1]"
readout_type = "cell viability"
result = "31.1%"

[[record]]
compound = "O=C(Nc1ncc(SCCN2CCCC2)s1)[C@]1(c2ccc(S(=O)(=O)C3CC3)cc2)C[C@H]1C1CCCCC1"
readout_type = "cell viability"
result = "69%"

[[record]]
compound = "CC(=O)c1ccc(S(=O)(=O)NC(=O)NC2CCCCC2)cc1 [acetohexamide]"
readout_type = "cell viability"
result = "83.1%"

[[record]]
compound = "COC(=O)Nc1nc2cc(C(=O)c3ccc(F)cc3)ccc2[nH]1 [flubendazole]"
readout_type = "cell viability"
result = "54.6%"

[[record]]
compound = "CC(C)C(=O)c1ccc(O)c(O)c1 [U-0521]"
readout_type = "cell viability"
result = "97%"

[[record]]
compound = "NC(=O)c1ccc(-c2nc(-c3ccc4c(c3)OCCO4)c(-c3ccccn3)[nH]2)cc1 [D-4476]"
readout_type = "cell viability"
result = "98.6%"

[[record]]
compound = "O=C1c2ccccc2C(Cc2ccnc(F)c2)(Cc2ccnc(F)c2)c2ccccc21 [DMP-543]"
readout_type = "cell viability"
result = "72.9%"

[[record]]
compound = "CC(C)C[C@H](NC(=O)[C@H](Cc1ccccc1)NC(=O)c1cnccn1)B(O)O [bortezomib]"
readout_type = "cell viability"
result = "6.2%"

[[record]]
compound = "O=C(O)c1ccc(Nc2ncc3c(n2)-c2ccc(Cl)cc2C(c2c(F)cccc2F)=NC3)cc1 [MLN8054]"
readout_type = "cell viability"
result = "82.5%"

[[record]]
compound = "Oc1ccc(-c2c(-c3ccccc3)nn3c(C(F)(F)F)cc(C(F)(F)F)nc23)cc1 [PHTPP]"
readout_type = "cell viability"
result = "95.9%"

[[record]]
compound = "C[C@@H]1COCCN1c1cc(=O)n2c(n1)N(Cc1cncc(Cl)c1)[C@H](C(F)(F)F)CC2 [SAR405]"
readout_type = "cell viability"
result = "76.3%"

[[record]]
compound = "CCC(=O)c1ccc(OCC(O)CN2CCN(c3ccccc3)CC2)cc1 (stereo not drawn) [centpropazine]"
readout_type = "cell viability"
result = "98.4%"

[[record]]
compound = "CC(C)C[C@@H](C(=O)N[C@H](C(=O)OC1CCCC1)c1ccccc1)[C@H](O)C(=O)NO [tosedostat]"
readout_type = "cell viability"
result = "84.1%"

[[record]]
compound = "O=C(NCCN1CCN(c2ncccn2)CC1)C12CC3CC(CC(C3)C1)C2 [adatanserin]"
readout_type = "cell viability"
result = "88.5%"

